The entries below come with measured melting point values attached.
result_type: melting point

INSERT INTO results (smiles_structure, assay_result) VALUES
  ('Cc1cc(=O)n2c(CC(=O)N[C@@H](CC(=O)O)C(=O)O)csc2n1', '253.1 to 256.8 °C'),
  ('CN[C@@H](CCC(=O)O)C(=O)O', '156.1 to 157.5 °C'),
  ('CC(C)(C)OC(=O)C[C@H](NC(=O)OCC1c2ccccc2-c2ccccc21)C(=O)NCCO', '93.2 to 95.6 °C'),
  ('N[C@@H](CC(=O)Nc1nccs1)C(=O)O', '268.9 to 271.2 °C');

The values you see were collected from paper PMC11477965.
